- TARGET: T1, Bbc1, P47068
- T1 sequence (P47068 1-78, looked up): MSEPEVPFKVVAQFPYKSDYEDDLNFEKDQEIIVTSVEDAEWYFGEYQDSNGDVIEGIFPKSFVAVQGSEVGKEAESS
- MEASUREMENT NOTES: SPOT array
- DETAILS: median of control spots 796
Kindly apply the following: TRUE if SPOT intensity is less than 20, FALSE in every other case.

[
  {
    "BINDER": "NLKKRPPTAPQRKIS",
    "LABEL VALUE": "FALSE"
  },
  {
    "BINDER": "NNNKMRPHLPPLSSG",
    "LABEL VALUE": "TRUE"
  }
]

QUERY: Check if SPOT intensity falls below 20 for LEFRAILFIPKRAPF .
RESULT: FALSE

QUERY: Check if SPOT intensity falls below 20 for NNQRRKPLLLNIGDH .
RESULT: TRUE

QUERY: Check if SPOT intensity falls below 20 for ALRRRLPVTRSKINW .
RESULT: FALSE

Where these numbers come from: paper PMC2756588
